- Experimental System: recombinant human NaV1.8 stably transfected HEK cells (Homo sapiens, UniProt Q9Y5Y9)
- Construct: expressed in transfected cells; host or cells: HEK cells, stably transfected
- Sequence (Q9Y5Y9 whole entry): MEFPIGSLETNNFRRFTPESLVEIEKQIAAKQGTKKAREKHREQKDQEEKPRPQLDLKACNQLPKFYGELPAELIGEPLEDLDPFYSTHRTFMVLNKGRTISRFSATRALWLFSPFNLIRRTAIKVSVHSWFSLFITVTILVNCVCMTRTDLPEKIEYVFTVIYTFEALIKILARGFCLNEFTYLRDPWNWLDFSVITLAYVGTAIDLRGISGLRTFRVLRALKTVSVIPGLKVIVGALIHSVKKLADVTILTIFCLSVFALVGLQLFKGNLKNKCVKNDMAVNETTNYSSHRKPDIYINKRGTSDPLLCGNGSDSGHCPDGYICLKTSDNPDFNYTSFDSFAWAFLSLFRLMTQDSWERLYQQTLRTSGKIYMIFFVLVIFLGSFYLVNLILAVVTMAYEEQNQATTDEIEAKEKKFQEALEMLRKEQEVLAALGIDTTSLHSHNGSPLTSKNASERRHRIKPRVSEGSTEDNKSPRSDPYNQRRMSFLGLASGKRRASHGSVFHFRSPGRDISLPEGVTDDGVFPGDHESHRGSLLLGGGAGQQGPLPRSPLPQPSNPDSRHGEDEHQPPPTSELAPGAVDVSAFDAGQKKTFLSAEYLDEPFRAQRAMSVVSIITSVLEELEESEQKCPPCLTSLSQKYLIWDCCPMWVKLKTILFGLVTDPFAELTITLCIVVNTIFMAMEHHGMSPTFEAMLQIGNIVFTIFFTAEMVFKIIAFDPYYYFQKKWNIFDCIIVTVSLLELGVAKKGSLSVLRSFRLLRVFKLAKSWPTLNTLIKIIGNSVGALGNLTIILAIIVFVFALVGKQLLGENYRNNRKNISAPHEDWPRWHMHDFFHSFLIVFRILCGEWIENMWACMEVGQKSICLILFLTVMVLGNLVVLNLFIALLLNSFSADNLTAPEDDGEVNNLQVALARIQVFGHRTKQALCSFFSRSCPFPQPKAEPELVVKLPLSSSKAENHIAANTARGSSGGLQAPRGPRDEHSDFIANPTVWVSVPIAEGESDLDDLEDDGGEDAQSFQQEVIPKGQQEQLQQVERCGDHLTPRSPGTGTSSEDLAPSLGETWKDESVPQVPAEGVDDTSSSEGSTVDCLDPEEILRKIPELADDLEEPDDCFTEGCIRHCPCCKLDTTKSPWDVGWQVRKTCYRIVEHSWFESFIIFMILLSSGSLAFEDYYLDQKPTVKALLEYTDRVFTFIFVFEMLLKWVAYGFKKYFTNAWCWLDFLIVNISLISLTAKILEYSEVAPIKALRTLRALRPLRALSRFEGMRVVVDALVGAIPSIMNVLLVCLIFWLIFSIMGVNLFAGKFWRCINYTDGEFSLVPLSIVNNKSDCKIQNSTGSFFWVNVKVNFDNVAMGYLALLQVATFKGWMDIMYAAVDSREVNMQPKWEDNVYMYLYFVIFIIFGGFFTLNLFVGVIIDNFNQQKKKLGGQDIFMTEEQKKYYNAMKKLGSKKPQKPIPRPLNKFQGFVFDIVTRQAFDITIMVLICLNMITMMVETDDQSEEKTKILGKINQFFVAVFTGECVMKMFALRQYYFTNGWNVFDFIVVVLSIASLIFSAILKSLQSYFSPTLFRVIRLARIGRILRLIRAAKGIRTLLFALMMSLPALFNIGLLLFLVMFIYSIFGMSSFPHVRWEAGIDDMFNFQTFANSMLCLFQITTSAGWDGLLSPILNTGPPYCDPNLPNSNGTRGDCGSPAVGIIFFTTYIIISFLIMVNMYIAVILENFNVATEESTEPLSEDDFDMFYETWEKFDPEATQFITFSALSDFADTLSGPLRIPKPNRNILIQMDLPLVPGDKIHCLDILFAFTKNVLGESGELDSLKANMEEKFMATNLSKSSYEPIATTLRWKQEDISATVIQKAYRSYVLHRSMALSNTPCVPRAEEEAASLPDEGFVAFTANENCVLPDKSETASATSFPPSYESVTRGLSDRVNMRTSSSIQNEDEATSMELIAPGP
- Assay Comment: Compound profiling on NaV1.8, human NaV1.8 cell line, SyncroPatch384PE automated patch clamp assay (Example 102, first set of compounds, Table 16)
- Assay type: cell-based
- Condition Set: inactivated state block (P2 measurement), human NaV1.8 HEK cells, Table 16 (first set of compounds), read-out: P2IC50
pIC50: −log10 of the molar value.
Assign pIC50 to each entry below.

Consider the reported pIC50 for these molecules:
Molecule: COc1c(Oc2nnc3c(c2C(=O)Nc2cccc(S(C)(=N)=O)c2)CCC3)ccc(F)c1F (stereo not shown)
pIC50: 6.30 to 6.70
//
Molecule: COc1cc(C#N)ccc1Oc1ncc(Br)cc1C(=O)Nc1cccc(S(C)(=N)=O)c1 (stereo not shown)
pIC50: ≥ 7.70
//
Molecule: COc1cc(C#N)ccc1Oc1nnc(-c2ccc(C)cc2)c(C)c1C(=O)Nc1cccc(S(C)(=N)=O)c1 (stereo not shown)
pIC50: ≥ 7.70

Shift focus to the following entry.
QUERY: Report measured pIC50; entry is CS(=O)(=O)c1cccc(NC(=O)c2cc(C(F)(F)F)cnc2Oc2ccc3c(c2)CC(=O)N3)c1
RESULT: 6.30 to 6.70

----------
- Experimental System: recombinant human NaV1.8 stably transfected HEK cells (Homo sapiens)
- Construct: expressed in transfected cells; host or cells: HEK cells, stably transfected
- Assay Comment: Compound profiling on NaV1.8, human NaV1.8 cell line, SyncroPatch384PE automated patch clamp assay (Example 102, first set of compounds, Table 16)
- Type: cell-based
- Condition Set: resting state block (P1 measurement), human NaV1.8 HEK cells, Table 16 (first set of compounds), read-out: P1IC50
Task for the reader: assign each of the following compounds its reported IC50.

For orientation, consider the following solved cases.
Compound: COc1ccc(C#N)cc1Oc1ncc(C(F)(F)F)cc1C(=O)Nc1cccc(S(C)(=N)=O)c1 (stereo not shown) [Compound 1620]
Reported Result: 200 to 500 nM

Compound: COc1c(Oc2ncc(C(F)(F)F)cc2C(=O)Nc2cccc(S(C)(=N)=O)c2)ccc(F)c1Cl (stereo not shown) [Compound 1618]
Reported Result: ≤ 20 nM

Compound: COc1cc(C#N)ccc1Oc1nnc(-c2cnc(C)s2)c(C)c1C(=O)Nc1cccc(S(C)(=N)=O)c1 (stereo not shown) [Compound 1449]
Reported Result: 200 to 500 nM

Compound: CC(C)Oc1ccc(Oc2ncc(C(F)(F)F)cc2C(=O)Nc2cccc(C(N)=O)c2)c(F)c1F [Compound 1709]
Reported Result: ≤ 20 nM

Compound: Cc1cc(F)ccc1Oc1nnc(C(F)(F)F)c(N2CCOCC2)c1C(=O)Nc1cccc([S@@](C)(=N)=O)c1 [Compound 1524]
Reported Result: 200 to 500 nM

Compound: CCOc1ccc(Oc2ncc(C(F)(F)F)cc2C(=O)Nc2cccc(S(C)(=N)=O)c2)cc1 (stereo not shown) [Compound 1609]
Reported Result: 40 to 200 nM

Note: attention shifts to another entry.
QUERY: Please tell me the measured IC50 for CS(=O)(=O)c1cccc(NC(=O)c2cc(C(F)(F)F)cnc2OCC(F)F)c1 [Compound 1663] ; system: recombinant human NaV1.8 stably transfected HEK cells (Homo sapiens).
RESULT: 200 to 500 nM
